# System: Escherichia coli IAI1
# PROCEDURE DETAILS: growth (OD595) fold change vs plate DMSO controls (fold change (ratio)); higher = more growth
# MEASUREMENT PARAMETERS: incubation time: 27 h, anaerobic, 37 °C
Where a name gives a salt, the structure may show the parent alone.
OBSERVABLE: growth
Numbers only.

Example entries and their recorded answers appear below.
| COMPOUND | EXPERIMENTAL SYSTEM | DATA VALUE |
| --- | --- | --- |
| Oc1c(Cl)cc(Cl)c2cccnc12 [Chloroxine] (20 µM) | Escherichia coli IAI1 | 0.966 |
| CC(C)=CCOc1ccc(/C=C/C(=O)c2ccc(OCC=C(C)C)cc2OCC(=O)O)cc1 [Sofalcone] (20 µM) | Escherichia coli IAI1 | 0.964 |
| O=C1CN(/N=C/c2ccc([N+](=O)[O-])o2)C(=O)N1 [Nitrofurantoin] (20 µM) | Escherichia coli IAI1 | 0.997 |
| CCOc1ccc2nc(S(N)(=O)=O)sc2c1 [Ethoxzolamide] (20 µM) | Escherichia coli IAI1 | 0.957 |
| CC(C)(C)NC(=O)[C@@H]1CN(Cc2cccnc2)CCN1C[C@@H](O)C[C@@H](Cc1ccccc1)C(=O)N[C@H]1c2ccccc2C[C@H]1O [Indinavir sulfate] (20 µM) | Escherichia coli IAI1 | 1.01 |

Could you report growth for every entry in the following list?
1. COc1ccc(C(=O)c2ccccc2)c(O)c1 [Oxybenzone] (20 µM)
2. CC(=O)OCC(=O)[C@@]1(O)CC[C@H]2[C@@H]3CCC4=CC(=O)C=C[C@]4(C)[C@@]3(F)[C@@H](O)C[C@@]21C [Isoflupredone acetate] (20 µM)
3. CC(C)NCC(O)c1ccc(O)c(O)c1 (single isomer, unassigned; (-)) [(-) Isoproterenol hydrochloride] (20 µM)
4. CCOC(=O)N1CCC(=C2c3ccc(Cl)cc3CCc3cccnc32)CC1 [Loratadine] (20 µM)
5. Cc1ncc([N+](=O)[O-])n1CC(O)CCl (stereo not given) [Ornidazole] (20 µM)
6. C[C@]12CC[C@H]3C(=CCc4cc(O)ccc43)[C@@H]1CCC2=O [Equilin] (20 µM)

// result
1: 0.808; 2: 1.02; 3: 0.976; 4: 1.01; 5: 0.984; 6: 0.964

Could you report growth for every entry in the following list?
1. CCN(CC)CCNC(=O)c1cc(Cl)c(N)cc1OC [Metoclopramide monohydrochloride] (20 µM)
2. OCc1cc(C(O)CNCCCCCCOCCCCc2ccccc2)ccc1O (stereo not given) [Salmeterol] (20 µM)
3. CCN1CCC[C@H]1CNC(=O)c1c(OC)ccc(Br)c1OC [Remoxipride hydrochloride] (20 µM)
4. CO[C@@]1(NC(=O)C(C(=O)O)c2ccc(O)cc2)C(=O)N2C(C(=O)O)=C(CSc3nnnn3C)CO[C@@H]21 (stereo not given in full) [Moxalactam disodium salt] (20 µM)

// result
1. 1.01
2. 1.02
3. 1.03
4. 0.0889

---

# System: Klebsiella aerogenes DSM 30053
# PROCEDURE DETAILS: growth (OD595) fold change vs plate DMSO controls (fold change (ratio)); higher = more growth
# MEASUREMENT PARAMETERS: incubation time: 27 h, anaerobic, 37 °C
Structures can show the parent of a compound that is named as a salt.
Use Condition met when the recorded growth is no lower than 1; use Condition not met when it is lower.

| COMPOUND | EXPERIMENTAL SYSTEM | ASSIGNED CATEGORY |
| --- | --- | --- |
| CC(=O)[C@H]1CC[C@H]2[C@@H]3CCC4=CC(=O)CC[C@]4(C)[C@H]3CC[C@]12C [Progesterone] (20 µM) | Klebsiella aerogenes DSM 30053 | Condition met |

// query Test whether the compound NS(=O)(=O)c1cc(Cl)c(Cl)c(S(N)(=O)=O)c1 [Dichlorphenamide] (20 µM) records growth of 1 or higher.
// result Condition met

// query Test whether the compound N#CC(c1ccc(Cl)cc1)c1c(Cl)cc(-n2ncc(=O)[nH]c2=O)cc1Cl (stereo unspecified) [Diclazuril] (20 µM) records growth of 1 or higher.
// result Condition met

// query Test whether the compound CCOC(=O)C1=C[C@]2(CC)CCCN3CCc4c(n1c1ccccc41)[C@@H]32 [Vinpocetine] (20 µM) records growth of 1 or higher.
// result Condition met

// query Test whether the compound COCC1=C(C(=O)OC(C)OC(=O)OC(C)C)N2C(=O)[C@@H](NC(=O)/C(=N\OC)c3csc(N)n3)[C@H]2SC1 (stereo partly specified) [Cefpodoxime proxetil] (20 µM) records growth of 1 or higher.
// result Condition met

// query Test whether the compound CCCCOc1ccc(C(=O)CCN2CCCCC2)cc1 [Dyclonine hydrochloride] (20 µM) records growth of 1 or higher.
// result Condition not met

// query Test whether the compound COc1cc(NC(C)CCCN)c2ncccc2c1 (stereo unspecified) [Primaquine diphosphate] (20 µM) records growth of 1 or higher.
// result Condition met

// query Test whether the compound Cc1c(Cl)cccc1Nc1ccccc1C(=O)O [Tolfenamic acid] (20 µM) records growth of 1 or higher.
// result Condition met

// query Test whether the compound CCOC(=O)/C=C(C)/C=C/C=C(C)/C=C/c1c(C)cc(OC)c(C)c1C [Etretinate] (20 µM) records growth of 1 or higher.
// result Condition not met

// query Test whether the compound Oc1c(Br)cc(Br)c2cccnc12 [Broxyquinoline] (20 µM) records growth of 1 or higher.
// result Condition not met

// query Test whether the compound CN1CCCC(n2nc(Cc3ccc(Cl)cc3)c3ccccc3c2=O)CC1 (stereo unspecified) [Azelastine hydrochloride] (20 µM) records growth of 1 or higher.
// result Condition not met

// query Test whether the compound CCCCOc1ccc(OCCCN2CCOCC2)cc1 [Pramoxine hydrochloride] (20 µM) records growth of 1 or higher.
// result Condition met

// query Test whether the compound CO/N=C1\CN(c2nc3c(cc2F)c(=O)c(C(=O)O)cn3C2CC2)CC1CN (stereo unspecified) [Gemifloxacin mesylate] (20 µM) records growth of 1 or higher.
// result Condition not met

// query Test whether the compound O=C(Nc1ccc([N+](=O)[O-])cc1Cl)c1cc(Cl)ccc1O [Niclosamide] (20 µM) records growth of 1 or higher.
// result Condition met

// query Test whether the compound C[C@]12C=CC(=O)C=C1CC[C@@H]1[C@@H]2C(=O)C[C@@]2(C)[C@H]1CC[C@]2(O)C(=O)CO [Prednisone] (20 µM) records growth of 1 or higher.
// result Condition met
